# GI50 annotations
System: OVCAR-3
Test: NCI tumour cell line growth inhibition, 48 h
Activity calls are given as the source filed them. No stated cut-off is given here; in the data, active = GI50 up to about 1.1 µM and inactive = higher.

Compound	Study System	Value
Cc1nn(-c2ccccc2)c(-c2ccccc2[N+](=O)[O-])c1CC#N	OVCAR-3	62.1 µM (inactive)

// lookup GI50 for "CCC(=N\NC(N)=S)/C(C)=N/O"
> 100 µM (inactive)

// lookup GI50 for CCCCCCCCCC[C@@H](O)[C@@H]1CC[C@@H]([C@@H]2CC[C@@H]([C@@H](O)CCCCCCCCCC[C@H](O)CC3=CC(C)OC3=O)O2)O1 (stereo not given in full)
3.94 µM (inactive)

// lookup GI50 for COC(=O)C1Cc2c([nH]c3ccccc23)[C@H](CC(C)C)N1 (stereo not given in full)
> 100 µM (inactive)

// lookup GI50 for "COC(=O)CCc1cc(OC)c2oc(-c3ccc(OC)c(OC)c3)c(CO)c2c1"
> 100 µM (inactive)

---

System: OVCAR-8
Experiment: NCI tumour cell line growth inhibition, 48 h
Activity calls are given as the source filed them. Cut-off read from the data, not from the text of the source: active = GI50 up to about 1.1 µM and inactive = higher.
Give your call using only these classes: active, inactive

Illustrative cases are given below, each with its answer.
>>> df
                                   compound  assigned_category
0                           NC(=O)Oc1ccccc1           inactive
1  COC(=O)C1Cc2c([nH]c3ccccc23)[C@H](CC(C)C)N1 (some centres undefined)           inactive
2  N#Cc1cccc(Nc2ccccc2SSc2ccccc2Nc2cccc(C#N)c2)c1           inactive
3         COC(=O)c1cc(=O)nc2sc3cccc(C)c3n12           inactive
4          COc1cc(-c2cc(=O)c3ccccc3o2)ccc1N           inactive
5  C[C@@H]1CC[C@]2(C(=O)O)CC[C@]3(C)C(=CC[C@@H]4[C@@]5(C)CC[C@H](O)C(C)(C)[C@@H]5CC[C@]43C)[C@@H]2[C@]1(C)O           inactive
6  CC(=O)Nc1ccc2c3c(cc(O)c2c1)N(C(=O)CCCCCCC(=O)N1CC(CCl)c2c1cc(O)c1cc(NC(C)=O)ccc21)CC3CCl (centres undefined)             active
7  CCC(=O)O[C@H]1CC[C@H]2[C@@H]3CCC4=CC(=O)C=C[C@]4(O)[C@H]3CC[C@]12C           inactive

// param item: "CS(=O)(=O)C1(Br)S(=O)(=O)OCCOS1(=O)=O" ; yields the recorded call
inactive

// param item: COc1c2c(cc3c1C(=O)c1c(O)cccc1C3=O)CC(O)CC2 (centres undefined) ; yields the recorded call
inactive

// param item: "CCOC(=O)/C(=C/c1ccccc1Br)P(=O)(OCC)OCC" ; yields the recorded call
inactive

// param item: "Cc1cc2c(C)nn(Cc3ccc(Cl)cc3)c2c(C#N)c1C" ; yields the recorded call
inactive

// param item: O=S1(=O)NC2CCC3NS(=O)(=O)NC4CCC(N1)N4S(=O)(=O)N23 (centres undefined) ; yields the recorded call
inactive

// param item: "O=C(O)Cn1nnc2c(=O)[nH][nH]c(=O)c21" ; yields the recorded call
inactive

// param item: "O=C1c2ccccc2C(=O)c2c1nc1ccccc1c2-c1cncc(-c2c3c(nc4ccccc24)C(=O)c2ccccc2C3=O)c1" ; yields the recorded call
inactive

---

System: M14
Experiment: NCI tumour cell line growth inhibition, 48 h
Active and inactive are the calls of the source. Cut-off read from the data, not from the text of the source: active = GI50 up to about 1.1 µM and inactive = higher.
Reported Endpoint: GI50

Completed entries (count: 8):
>>> df
                                   compound                value
0         CCOC(=O)C1=C(Nc2cccc(OC)c2)OCC1=O  > 100 µM (inactive)
1    O=C(c1ccccc1F)c1c(NCc2ccccc2)c(=O)c1=O  > 100 µM (inactive)
2     CCCC1c2c(ccc3ccccc23)Oc2ccc3ccccc3c21     74 µM (inactive)
3  O=C(Nc1cccc(O)c1)C(=O)C(C(=O)c1ccc(Cl)c(Cl)c1)C1OC(=O)c2ccccc21 (centres undefined)   20.2 µM (inactive)
4         O=P(O)(O)CN1CCNCCN(CP(=O)(O)O)CC1   37.9 µM (inactive)
5  CC(NCc1c(O)ccc2c(-c3ccccc3)cc(=O)oc12)C(=O)O (centres undefined)  > 100 µM (inactive)
6  C=CCCCC(C#N)(c1ccccc1)N1CCCC1 (centres undefined)  > 100 µM (inactive)
7                      c1ccc(CCN2CCOCC2)nc1  > 100 µM (inactive)

// lookup GI50 for "Nc1c(C(=O)O)nnc2cc(Cl)ccc12"
> 100 µM (inactive)

---

Tested on: SN12C
Assay: NCI tumour cell line growth inhibition, 48 h
Calls of active or inactive are those of the source. Cut-off read from the data, not from the text of the source: active = GI50 up to about 1.1 µM and inactive = higher.
# GI50 annotations

Completed entries (count: 7):
In [3]: df
Out[3]:
                                   compound                value
0  O=C1OC(c2ccc(O)c(F)c2)(c2ccc(O)c(F)c2)c2cccc3cccc1c23   1.34 µM (inactive)
1                   CSc1nc2nccnc2c(=O)[nH]1  > 100 µM (inactive)
2  CCOc1ccccc1Nc1nc(C)c(C(=O)CC(=O)C(=O)Nc2ccccc2)s1   34.8 µM (inactive)
3  COC(=O)c1c(O)ccc2c1c1c(n2Cc2ccc(OC)cc2)C(=O)c2ccccc2C1     27 µM (inactive)
4      CC(=O)c1ccc(Nc2nc3ccccc3c3occc23)cc1   31.9 µM (inactive)
5           Cc1cc(C)n2c(-c3ccccc3)c(C)cc2n1   50.5 µM (inactive)
6  COc1ccc(-c2nc(-c3cnccn3)n(C3OC(CO)C(O)C(O)C3O)n2)cc1 (stereo not drawn)  > 100 µM (inactive)

Next, consider the following compound.
// lookup GI50 for "CCN(C(=S)N[C@@H](Cc1ccccc1)C(=O)N[C@@H](CC(C)C)C(=O)OC)c1ccccc1"
> 100 µM (inactive)

---

# GI50 annotations
Tested on: M14
Test: NCI tumour cell line growth inhibition, 48 h
The source made the active and inactive calls. Rule as the data show it: active = GI50 up to about 1.1 µM and inactive = higher.

In [3]: df
Out[3]:
                                   compound                value
0  COc1cc(N(CCC#N)CCC#N)ccc1C(=N/NC(=O)c1cc(Br)ccc1O)/N=N/c1ccc(C)cc1   28.3 µM (inactive)
1  O=C(Nc1nnc(-c2ccccc2)o1)C(SC(=S)N1CCCC1)c1ccccc1 (stereo not given)   23.6 µM (inactive)
2  N#Cc1cc([N+](=O)[O-])ccc1NC(=O)C(=O)Nn1c(S)nc2ccccc2c1=O  > 100 µM (inactive)

Param readout = GI50; param system = M14; param query = Cc1cc2c(cc1C)C(=O)C1(C2)Cc2c(ccc(C)c2C)C1=O (stereo not given) ; response: value
> 100 µM (inactive)

Param readout = GI50; param system = M14; param query = "Cc1ccc(S(=O)(=O)[C@@H](Cl)[C@H]2N=C(Cl)NN=C2c2ccccc2)cc1" ; response: value
21.2 µM (inactive)

---

Tested on: OVCAR-4
Assay: NCI tumour cell line growth inhibition, 48 h
Active and inactive are the calls of the source. No stated cut-off is given here; in the data, active = GI50 up to about 1.1 µM and inactive = higher.
Reported Endpoint: GI50

                               input_smiles                value
0                           S=C(S)NCNC(=S)S  > 100 µM (inactive)
1           CC(=O)N1C(=O)C(=O)c2cc(Cl)ccc21  > 100 µM (inactive)
2               NCC1CCCCC1.O=C(O)NCC1CCCCC1   35.6 µM (inactive)
3  CCn1c2ccccc2c2cc(Nc3cc(C)[nH]c(=O)n3)ccc21  > 100 µM (inactive)

Next, consider the following compound.
// lookup GI50 for "O=C(NNc1cn[nH]c(=O)c1Cl)/C(=C/c1ccc2c(c1)OCO2)NC(=O)c1ccccc1"
32.8 µM (inactive)

---

System: NCI-H226
Assay: NCI tumour cell line growth inhibition, 48 h
The source made the active and inactive calls. Cut-off read from the data, not from the text of the source: active = GI50 up to about 1.1 µM and inactive = higher.
Reported Endpoint: GI50

Completed entries (count: 5):
                                   compound                value
0           COc1ccc(-c2nnc(-c3ccncc3)o2)cc1  > 100 µM (inactive)
1  Nc1ccc2c(SCCSc3c4ccccc4nc4cc(N)ccc34)c3ccccc3nc2c1  > 100 µM (inactive)
2  CCC1C(c2cc(OC)c(OC)c(OC)c2)c2cc3c(cc2OC1N1CCOCC1)OCO3 (stereo not drawn)   7.98 µM (inactive)
3    COc1ccc(P2(=S)Oc3ccccc3-c3ccccc3O2)cc1    7.1 µM (inactive)
4           N#Cc1ccc(Nc2cnc3ccc(N)cc3n2)cc1  > 100 µM (inactive)

Param readout = GI50; param system = NCI-H226; param query = "Cc1ccc(NC(=O)c2ccc(OP(=O)(O)Nc3ccc(C)cc3)cc2)cc1" ; response: value
> 100 µM (inactive)

Param readout = GI50; param system = NCI-H226; param query = "[O-][S+](c1ccc(O)cc1)c1ccc(O)cc1" ; response: value
> 100 µM (inactive)

Param readout = GI50; param system = NCI-H226; param query = Cc1cc2c(cc1C)C(=O)C1(C2)Cc2c(ccc(C)c2C)C1=O (stereo not drawn) ; response: value
> 100 µM (inactive)

Param readout = GI50; param system = NCI-H226; param query = "O=C1c2ccccc2N1C(=O)c1ccccc1[N+](=O)[O-]" ; response: value
12.3 µM (inactive)

Param readout = GI50; param system = NCI-H226; param query = "COc1ccccc1N/C(=C\C(=O)C(=O)NC12CC3CC(CC(C3)C1)C2)c1ccccc1" ; response: value
> 10 µM (inactive)

Param readout = GI50; param system = NCI-H226; param query = CC1(C)OC1CC/C(=C/CBr)CBr (stereo not drawn) ; response: value
21.7 µM (inactive)

Param readout = GI50; param system = NCI-H226; param query = OC1[C@H]([C@H]2CCCC[C@@H]2O)CCC[C@@H]1[C@@H]1CCCC[C@H]1O (stereo partly drawn) ; response: value
> 100 µM (inactive)

Param readout = GI50; param system = NCI-H226; param query = NCCSC1(O)C(=O)c2ccccc2-c2ccccc21 (stereo not drawn) ; response: value
1.33 µM (inactive)
